Each entry below carries its recorded TLR7 LEC.
Target: human TLR7 (Homo sapiens)
Construct: expressed in transfected cells; host or cells: HEK293 cells, transient transfection with CMV-TLR7 plasmid and NFκB-luc plasmid
Sequence (Q9NYK1 27-1049): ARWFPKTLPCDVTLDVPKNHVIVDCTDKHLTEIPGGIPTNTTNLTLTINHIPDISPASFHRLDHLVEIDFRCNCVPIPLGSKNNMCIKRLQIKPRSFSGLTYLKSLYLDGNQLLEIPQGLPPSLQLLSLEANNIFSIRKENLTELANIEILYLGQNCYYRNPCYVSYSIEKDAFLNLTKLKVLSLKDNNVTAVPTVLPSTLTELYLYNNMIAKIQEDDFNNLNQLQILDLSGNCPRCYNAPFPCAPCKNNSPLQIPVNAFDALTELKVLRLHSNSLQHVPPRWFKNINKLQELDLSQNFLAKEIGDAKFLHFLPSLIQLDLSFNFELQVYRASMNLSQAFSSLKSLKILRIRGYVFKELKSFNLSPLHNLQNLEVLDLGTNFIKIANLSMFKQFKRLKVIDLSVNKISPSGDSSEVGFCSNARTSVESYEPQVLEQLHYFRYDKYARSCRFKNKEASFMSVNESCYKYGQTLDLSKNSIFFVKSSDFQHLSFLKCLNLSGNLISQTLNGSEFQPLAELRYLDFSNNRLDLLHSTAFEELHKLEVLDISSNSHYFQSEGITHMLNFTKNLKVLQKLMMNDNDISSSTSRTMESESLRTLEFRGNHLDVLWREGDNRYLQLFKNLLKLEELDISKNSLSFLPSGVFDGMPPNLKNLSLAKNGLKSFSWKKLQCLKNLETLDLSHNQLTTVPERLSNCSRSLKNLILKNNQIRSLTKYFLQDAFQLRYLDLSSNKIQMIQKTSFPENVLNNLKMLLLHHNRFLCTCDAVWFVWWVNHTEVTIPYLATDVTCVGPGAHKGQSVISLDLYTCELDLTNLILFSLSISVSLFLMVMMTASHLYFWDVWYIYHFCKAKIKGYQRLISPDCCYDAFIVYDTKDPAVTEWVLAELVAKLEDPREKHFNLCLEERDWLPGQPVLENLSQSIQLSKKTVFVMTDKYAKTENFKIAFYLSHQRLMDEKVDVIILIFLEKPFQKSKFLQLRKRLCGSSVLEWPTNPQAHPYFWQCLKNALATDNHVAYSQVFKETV
Experiment: TLR7 cellular reporter assay (HEK293, NFκB-luc)
Assay type: cell-based
Settings: HEK293 cells transfected with CMV-TLR7 and NFκB-luc, 6 hours incubation; lowest effective concentration

>  <MOLECULE>
COc1ccccc1Cn1ccc2nc(N)nc(NCc3noc(C)n3)c21 [Compound 205]

>  <TLR7 LEC>
<0.01 µM

$$$$
>  <MOLECULE>
CCC[C@@H](CO)Nc1nc(N)nc2ccn(Cc3c(OC)cccc3OC)c12 [Compound 100]

>  <TLR7 LEC>
<0.01 µM

$$$$
>  <MOLECULE>
CCC[C@@H](CCO)Nc1nc(N)nc2ccn(Cc3ccccc3OC)c12 [Compound 80]

>  <TLR7 LEC>
<0.0006 µM

$$$$

// next item, TLR7 LEC requested
TLR7 LEC measured on CCCC[C@@H](CCO)Nc1nc(N)nc2ccn(Cc3c(OC)cccc3OC)c12 [Compound 99] = <0.01 µM

---

Biological target: human TLR8 (Homo sapiens, UniProt Q9NR97)
Construct: expressed in transfected cells; host or cells: HEK293 cells, transient transfection with TLR8 plasmid and NFκB-luc plasmid
Sequence (Q9NR97 27-1041): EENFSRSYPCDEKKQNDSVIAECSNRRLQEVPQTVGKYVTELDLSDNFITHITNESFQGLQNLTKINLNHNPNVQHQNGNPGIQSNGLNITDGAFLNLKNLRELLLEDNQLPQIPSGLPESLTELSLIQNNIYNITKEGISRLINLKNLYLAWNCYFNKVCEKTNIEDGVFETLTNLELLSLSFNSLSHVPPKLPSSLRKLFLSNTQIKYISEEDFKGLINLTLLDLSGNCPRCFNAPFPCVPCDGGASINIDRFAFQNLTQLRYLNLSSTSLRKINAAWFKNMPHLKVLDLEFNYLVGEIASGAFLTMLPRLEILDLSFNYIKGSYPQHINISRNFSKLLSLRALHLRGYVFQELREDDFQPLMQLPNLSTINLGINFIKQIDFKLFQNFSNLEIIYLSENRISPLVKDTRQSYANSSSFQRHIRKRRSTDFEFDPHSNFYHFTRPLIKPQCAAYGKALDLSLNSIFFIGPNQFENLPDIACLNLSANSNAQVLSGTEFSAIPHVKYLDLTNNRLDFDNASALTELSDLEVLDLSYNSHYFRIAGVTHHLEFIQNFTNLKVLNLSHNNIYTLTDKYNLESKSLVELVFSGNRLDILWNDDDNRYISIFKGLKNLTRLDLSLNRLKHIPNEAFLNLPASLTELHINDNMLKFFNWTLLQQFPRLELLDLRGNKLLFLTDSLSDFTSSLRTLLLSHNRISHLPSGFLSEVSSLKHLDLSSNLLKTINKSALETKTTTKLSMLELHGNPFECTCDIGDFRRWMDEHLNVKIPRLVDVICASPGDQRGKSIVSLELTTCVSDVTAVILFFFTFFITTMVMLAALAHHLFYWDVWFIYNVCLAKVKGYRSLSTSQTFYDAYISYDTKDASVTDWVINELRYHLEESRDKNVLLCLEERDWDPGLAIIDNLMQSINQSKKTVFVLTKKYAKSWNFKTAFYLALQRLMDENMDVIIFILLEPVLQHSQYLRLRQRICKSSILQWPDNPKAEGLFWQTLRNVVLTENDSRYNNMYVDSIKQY
Assay: TLR8 cellular reporter assay (HEK293, NFκB-luc)
Assay type: cell-based
Conditions: HEK293 cells transfected with CMV-TLR8 and NFκB-luc, 6 hours incubation; lowest effective concentration
TLR8 LEC by entry:

>  <COMPOUND>
Cc1nc(CNc2nc(N)nc3ccn(Cc4ccccn4)c23)c(C)o1 [Compound 177]

>  <TEST_TARGET>
human TLR8 (Homo sapiens, UniProt Q9NR97)

>  <TLR8 LEC>
>25 µM

$$$$
>  <COMPOUND>
Nc1nc(NCc2ccoc2)c2c(ccn2Cc2ccccc2)n1 [Compound 45]

>  <TEST_TARGET>
human TLR8 (Homo sapiens, UniProt Q9NR97)

>  <TLR8 LEC>
>25 µM

$$$$

Looking up COc1ccc(Cn2ccc3nc(N)nc(NCc4cc(C)on4)c32)nc1OC [Compound 124] , I see its TLR8 LEC listed as >22 µM
